Tested on: Heterodera zeae
Assay Procedure: Nematicidal activity against Heterodera zeae infective stage larvae assessed as nematode mortality at 0.25% under dark conditions measured 48 hr post dose by stereoscopic microscopy
Assay type: functional
Readout Kind: mortality
I'd appreciate it if you wrote the number followed by its unit.

# annotated cases, reported mortality shown
INSERT INTO results (molecule, assay_result) VALUES
  ('CCCCCCCC/C=C\CCCCCCCC(=O)O', '10%'),
  ('CCCCCCCCCCCCCCCCO', '50%'),
  ('COC(=O)c1ccc(O)c(O)c1 [METHYL PROTOCATECHUATE]', '100%'),
  ('COc1cc(C(=O)O)cc(OC)c1OC', '100%'),
  ('COc1c(O[C@@H]2O[C@H](CO)[C@@H](O)[C@H](O)[C@H]2O)cc2oc(-c3ccc(O)c(O)c3)c(O)c(=O)c2c1O', '10%'),
  ('CCCCCCCCCCCCCCCC(=O)O', '20%');

Quick one: mortality of "O=C(O)c1ccc(O)cc1" ?
40%

Quick one: mortality of "COc1ccc(C(=O)O)cc1" ?
40%
